Biological target: T1, human CD1a expressed on cells (human, UniProt P06126 17-327; P61769 21-119)
T1 construct: also called HEK - CD1a; C1R - CD1a
Assay: flow cytometry, C1R cells, 1 µg/ml antibody
Property: Fluorescence Intensity Geomean (normalized to background) (fold over background)
Give the value, in units of fold over background, as a plain number.

For the binder 116 (VR12117) (antibody, V domains shown, also called OX116) VH: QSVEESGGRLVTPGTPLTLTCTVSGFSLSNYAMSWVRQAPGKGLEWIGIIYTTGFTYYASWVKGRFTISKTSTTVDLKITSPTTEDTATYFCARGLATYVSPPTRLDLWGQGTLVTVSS VL: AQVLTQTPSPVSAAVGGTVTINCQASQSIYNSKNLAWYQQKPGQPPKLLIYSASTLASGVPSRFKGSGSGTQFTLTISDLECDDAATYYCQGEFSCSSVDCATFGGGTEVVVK , what Fluorescence Intensity Geomean (normalized to background) is on record?
28.7

The measurements presented in this section are drawn from patent US20250289893A1.
